The measured values listed here are drawn from patent US11034669B2.

- TESTED_SYSTEM: Human AR (Homo sapiens, UniProt P10275)
- Sequence (P10275 whole entry): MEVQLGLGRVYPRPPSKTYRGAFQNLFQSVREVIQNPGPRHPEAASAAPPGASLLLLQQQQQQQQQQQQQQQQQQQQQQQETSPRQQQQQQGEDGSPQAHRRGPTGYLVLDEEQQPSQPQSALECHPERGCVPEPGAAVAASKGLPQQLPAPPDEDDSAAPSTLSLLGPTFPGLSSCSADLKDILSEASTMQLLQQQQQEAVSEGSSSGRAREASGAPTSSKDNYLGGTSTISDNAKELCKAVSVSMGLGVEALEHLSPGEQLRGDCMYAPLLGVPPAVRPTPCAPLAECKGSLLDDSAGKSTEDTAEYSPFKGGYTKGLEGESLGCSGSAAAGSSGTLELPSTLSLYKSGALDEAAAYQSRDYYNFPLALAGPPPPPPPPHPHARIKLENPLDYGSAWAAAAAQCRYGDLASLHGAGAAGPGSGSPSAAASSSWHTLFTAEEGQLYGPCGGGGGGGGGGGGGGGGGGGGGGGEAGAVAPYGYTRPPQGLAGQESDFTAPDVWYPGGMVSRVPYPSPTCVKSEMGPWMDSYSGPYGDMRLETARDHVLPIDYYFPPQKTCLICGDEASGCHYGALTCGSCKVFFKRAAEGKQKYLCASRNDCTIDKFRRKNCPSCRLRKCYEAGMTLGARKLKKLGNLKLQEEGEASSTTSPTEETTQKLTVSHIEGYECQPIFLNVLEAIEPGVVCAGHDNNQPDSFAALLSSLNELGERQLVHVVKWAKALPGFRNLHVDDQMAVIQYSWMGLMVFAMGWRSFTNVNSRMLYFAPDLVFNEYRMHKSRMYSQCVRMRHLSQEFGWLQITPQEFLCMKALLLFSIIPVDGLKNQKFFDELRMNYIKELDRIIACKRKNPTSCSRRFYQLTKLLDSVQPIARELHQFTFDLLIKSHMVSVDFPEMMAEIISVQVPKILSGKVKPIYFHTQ
- METHOD_NOTES: AR antagonist assay (GRE-LUC luciferase reporter, with 0.1 nM R1881)
- TEST_CONDITIONS: read-out: AR Antagonism IC50
- Protocol: Human AR cDNA cloned into pCMV vector, GRE-LUC, and CMV-renilla-LUC were used to transfect cells. HEK-293 cells (ATCC) were plated at 120,000 cells per well of a 24 well plate in DME+5% csFBS (Fisher Scientific, Waltham, Mass.). The cells were transfected using Lipofectamine (Life Technologies, Carlsbad, Calif.) with 0.25 μg GRE-LUC, 0.010 μg CMV-LUC (renilla luciferase) and 25 ng of the AR. […] Luciferase assay was performed 48 hrs after transfection. […]
READOUT_KIND: IC50 (nM)
Give just the number in nM; leave the unit off.

Kindly indicate its recorded IC50. Item: `Cc1ncsc1C(=O)NCc1ccc(-n2ccc(-c3ccc(C#N)c(C(F)(F)F)c3)n2)cc1F` 280

----------
- TESTED_SYSTEM: UniProt:P04150
- Sequence (P04150 whole entry): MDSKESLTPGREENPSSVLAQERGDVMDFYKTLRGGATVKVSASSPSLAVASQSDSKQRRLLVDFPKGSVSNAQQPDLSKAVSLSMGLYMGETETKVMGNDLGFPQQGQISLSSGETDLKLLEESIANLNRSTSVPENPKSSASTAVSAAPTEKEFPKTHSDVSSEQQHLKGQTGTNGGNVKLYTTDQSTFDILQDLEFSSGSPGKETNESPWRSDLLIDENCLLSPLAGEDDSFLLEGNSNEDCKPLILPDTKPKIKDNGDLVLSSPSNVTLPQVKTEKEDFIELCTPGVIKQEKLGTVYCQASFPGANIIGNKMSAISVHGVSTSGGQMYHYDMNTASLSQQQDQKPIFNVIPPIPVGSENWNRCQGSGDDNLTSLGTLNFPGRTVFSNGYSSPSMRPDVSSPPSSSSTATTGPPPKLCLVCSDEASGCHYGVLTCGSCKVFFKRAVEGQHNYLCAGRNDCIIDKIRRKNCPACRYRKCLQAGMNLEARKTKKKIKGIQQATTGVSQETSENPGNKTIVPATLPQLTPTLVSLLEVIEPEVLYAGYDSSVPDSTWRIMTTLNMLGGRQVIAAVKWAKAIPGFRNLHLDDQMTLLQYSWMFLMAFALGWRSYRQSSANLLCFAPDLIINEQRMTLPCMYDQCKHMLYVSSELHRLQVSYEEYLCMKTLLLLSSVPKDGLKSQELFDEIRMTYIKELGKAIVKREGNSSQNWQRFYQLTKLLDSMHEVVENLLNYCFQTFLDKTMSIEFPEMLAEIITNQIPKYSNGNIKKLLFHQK
- METHOD_NOTES: GR antagonist assay (GRE-LUC luciferase reporter, with 0.1 nM dexamethasone)
READOUT_KIND: IC50

N#Cc1ccc(-c2ccn(-c3ccc(CNC(=O)c4ccccn4)c(F)c3)n2)cc1C(F)(F)F [Compound 16]	> 10 µM

Now for the molecule whose IC50 we want.
GET IC50 where system = UniProt:P04150 and item = Cc1ncsc1C(=O)NCc1ccc(-n2ccc(-c3ccc(C#N)c(C(F)(F)F)c3)n2)cc1F [Compound 15] > 10 µM
